# testSummary: Acute toxicity p.o. in rats
# experimentalContext: rat, in vivo, po
parameterMeasured: LD50

Which LD50 is listed for CCCCCCCCc1ccc(CCC(N)(CO)CO)cc1 ?
> 10 mg/kg
